target: human κ opioid receptor (Homo sapiens, UniProt P41145); construct: expressed in transfected cells; host or cells: Chinese hamster ovary (CHO) cells; assay: biochemical; assay type: binding; details: read-out: Ki [3H] U69,593 (κ)
Sequence (P41145 whole entry): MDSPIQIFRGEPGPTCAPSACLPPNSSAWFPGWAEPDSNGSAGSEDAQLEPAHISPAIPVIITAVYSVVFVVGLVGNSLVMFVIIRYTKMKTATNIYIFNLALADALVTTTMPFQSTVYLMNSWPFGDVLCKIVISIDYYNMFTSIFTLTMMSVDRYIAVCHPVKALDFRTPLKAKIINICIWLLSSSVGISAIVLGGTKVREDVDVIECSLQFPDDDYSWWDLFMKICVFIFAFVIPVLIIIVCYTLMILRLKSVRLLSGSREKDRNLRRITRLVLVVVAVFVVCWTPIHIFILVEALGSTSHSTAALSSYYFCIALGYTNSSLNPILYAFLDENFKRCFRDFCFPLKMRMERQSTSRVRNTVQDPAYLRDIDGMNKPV
PROPERTY: Ki (nM)
Field format: number, assumed nM, no unit text.

Bench note: what Ki did CC1C2Cc3ccc(NC(N)=S)cc3C1(C)CCN2CC1CC1 (racemic) [Example 37] show? 4

* * *

biological target: human κ opioid receptor (Homo sapiens); construct: expressed in transfected cells; host or cells: Chinese hamster ovary (CHO) cells; assay: biochemical; assay type: binding
Quick rule for you: Ki under 1 nM gets label 1, anything else gets label 0.

See these solved cases before continuing.
COMPOUND: CC1C2Cc3ccc(CC#N)cc3C1(C)CCN2CC1CC1 (centres unmarked)
CAT: label 0

COMPOUND: Oc1ccc2c(c1)C13CCCCC1(O)C(C2)N(CC1CCC1)CC3 (centres unmarked) [butorphanol, Butorphanol, reference compound]
CAT: label 1

COMPOUND: N#Cc1ccc2c(c1O)[C@]13CCN(CC4CCC4)[C@H](C2)[C@]1(O)CCC(=O)C3
CAT: label 0

Lab note: Ki threshold 1 nM. Does this compound come in strictly under it? CC1C2Cc3ccc(C=NO)cc3C1(C)CCN2CC1CC1 (centres unmarked) label 1
